# IC50 listing for each entry below
# MEASURED ON: Dual specificity protein kinase CLK4 (Mus musculus)
# Sequence (O35493 whole entry): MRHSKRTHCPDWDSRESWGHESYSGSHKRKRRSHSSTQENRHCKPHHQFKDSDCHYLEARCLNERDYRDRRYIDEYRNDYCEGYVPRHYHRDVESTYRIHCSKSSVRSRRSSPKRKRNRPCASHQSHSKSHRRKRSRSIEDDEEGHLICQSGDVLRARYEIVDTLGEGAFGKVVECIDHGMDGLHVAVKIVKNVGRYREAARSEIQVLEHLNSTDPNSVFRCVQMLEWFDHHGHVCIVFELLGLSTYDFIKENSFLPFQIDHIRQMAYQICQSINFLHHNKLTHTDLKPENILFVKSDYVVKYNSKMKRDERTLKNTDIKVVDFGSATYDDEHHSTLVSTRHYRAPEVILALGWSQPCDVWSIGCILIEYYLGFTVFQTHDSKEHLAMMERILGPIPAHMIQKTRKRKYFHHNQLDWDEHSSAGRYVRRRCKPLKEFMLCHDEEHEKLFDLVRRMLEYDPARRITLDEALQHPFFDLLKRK
# TEST DETAILS: Inhibition of recombinant GST-tagged mouse CLK4 expressed in Escherichia coli using RS peptide as substrate after 30 mins in presence of [gamma-33P] by scintillation counting method

{"columns": ["SMILES", "IC50 (nM)"],
 "data": [
  ["CC[C@H](CO)Nc1nc(NCc2ccccc2)c2ncn(C(C)C)c2n1", 620],
  ["CC(C)c1cnn2c(NCc3ccc(-c4ccccn4)cc3)nc(N[C@H]3CC[C@H](N)CC3)nc12", 89]
]}

* * *

# MEASURED ON: Dual specificity tyrosine-phosphorylation-regulated kinase 3 (Homo sapiens, UniProt O43781)
# Sequence (O43781 whole entry): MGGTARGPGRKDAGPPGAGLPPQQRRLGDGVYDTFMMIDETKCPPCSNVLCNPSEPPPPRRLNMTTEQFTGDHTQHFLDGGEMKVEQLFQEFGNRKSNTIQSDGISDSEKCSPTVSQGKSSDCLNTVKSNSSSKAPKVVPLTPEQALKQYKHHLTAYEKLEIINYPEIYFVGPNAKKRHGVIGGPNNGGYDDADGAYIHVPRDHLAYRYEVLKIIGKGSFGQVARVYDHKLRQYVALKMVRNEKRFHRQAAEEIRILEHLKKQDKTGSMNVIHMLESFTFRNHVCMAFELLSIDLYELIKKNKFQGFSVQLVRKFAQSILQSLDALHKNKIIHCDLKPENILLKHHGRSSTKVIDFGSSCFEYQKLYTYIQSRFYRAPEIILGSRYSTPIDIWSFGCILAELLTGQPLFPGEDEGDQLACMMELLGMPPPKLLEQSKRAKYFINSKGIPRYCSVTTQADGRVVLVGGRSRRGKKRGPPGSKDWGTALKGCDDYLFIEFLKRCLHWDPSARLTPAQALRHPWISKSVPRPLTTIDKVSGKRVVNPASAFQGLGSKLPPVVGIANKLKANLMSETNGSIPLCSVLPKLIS
# TEST DETAILS: Inhibition of recombinant GST-tagged human DYRK3 expressed in Escherichia coli using woodtide as substrate after 30 mins in presence of [gamma-33P] by scintillation counting method

{"columns": ["COMPOUND", "LIMIT OPERATOR", "IC50 [nM]"],
 "data": [
  ["CC(C)c1cnn2c(NCc3ccc(-c4ccccn4)cc3)nc(N[C@H]3CC[C@H](N)CC3)nc12", "=", 380],
  ["CC[C@H](CO)Nc1nc(NCc2ccccc2)c2ncn(C(C)C)c2n1 [SELICICLIB]", ">", 10000]
]}

* * *

# MEASURED ON: Cyclin-dependent kinase 5/CDK5 activator 1 (Homo sapiens, UniProt Q00535)
# Sequence (Q00535 whole entry): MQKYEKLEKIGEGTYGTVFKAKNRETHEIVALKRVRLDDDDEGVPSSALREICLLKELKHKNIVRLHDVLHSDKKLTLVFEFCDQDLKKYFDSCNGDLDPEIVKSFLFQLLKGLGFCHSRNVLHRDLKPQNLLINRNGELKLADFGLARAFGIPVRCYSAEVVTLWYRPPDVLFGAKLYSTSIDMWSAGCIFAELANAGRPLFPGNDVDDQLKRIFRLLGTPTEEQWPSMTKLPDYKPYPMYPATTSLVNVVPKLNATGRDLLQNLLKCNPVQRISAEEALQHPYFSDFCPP
# Sequence (Q15078 whole entry, further chain): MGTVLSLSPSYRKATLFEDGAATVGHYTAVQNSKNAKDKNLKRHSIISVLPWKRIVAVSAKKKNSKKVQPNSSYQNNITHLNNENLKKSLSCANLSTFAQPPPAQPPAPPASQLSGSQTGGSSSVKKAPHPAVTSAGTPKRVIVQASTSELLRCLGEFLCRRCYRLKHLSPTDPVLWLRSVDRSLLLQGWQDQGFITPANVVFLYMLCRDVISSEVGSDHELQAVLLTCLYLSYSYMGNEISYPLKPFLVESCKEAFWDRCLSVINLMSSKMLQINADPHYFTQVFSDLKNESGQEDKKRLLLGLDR
# TEST DETAILS: Inhibition of recombinant human CDK5/p25 after 30 mins in presence of [gamma-33P] by scintillation counting method

{"columns": ["SMILES", "MEASURED ON", "IC50 [nM]"],
 "data": [
  ["CC(C)c1cnn2c(NCc3ccc(-c4ccccn4)cc3)nc(N[C@H]3CC[C@H](N)CC3)nc12", "Cyclin-dependent kinase 5/CDK5 activator 1 (Homo sapiens, UniProt Q00535)", 50]
]}

* * *

# MEASURED ON: Dual specificity tyrosine-phosphorylation-regulated kinase 1A (Homo sapiens)
# TEST DETAILS: Inhibition of recombinant GST-tagged human DYRK1A expressed in Escherichia coli using woodtide as substrate after 30 mins in presence of [gamma-33P] by scintillation counting method
MEASURED ATTRIBUTE: IC50 (nM)

{"columns": ["SMILES", "UNIT ABBREVIATION", "NUMBER"],
 "data": [
  ["CC(C)c1cnn2c(NCc3ccc(-c4ccccn4)cc3)nc(N[C@H]3CC[C@H](N)CC3)nc12", "nM", 120]
]}

* * *

# MEASURED ON: CDK9/cyclin T1 (Homo sapiens)
# Sequence (O60563 whole entry): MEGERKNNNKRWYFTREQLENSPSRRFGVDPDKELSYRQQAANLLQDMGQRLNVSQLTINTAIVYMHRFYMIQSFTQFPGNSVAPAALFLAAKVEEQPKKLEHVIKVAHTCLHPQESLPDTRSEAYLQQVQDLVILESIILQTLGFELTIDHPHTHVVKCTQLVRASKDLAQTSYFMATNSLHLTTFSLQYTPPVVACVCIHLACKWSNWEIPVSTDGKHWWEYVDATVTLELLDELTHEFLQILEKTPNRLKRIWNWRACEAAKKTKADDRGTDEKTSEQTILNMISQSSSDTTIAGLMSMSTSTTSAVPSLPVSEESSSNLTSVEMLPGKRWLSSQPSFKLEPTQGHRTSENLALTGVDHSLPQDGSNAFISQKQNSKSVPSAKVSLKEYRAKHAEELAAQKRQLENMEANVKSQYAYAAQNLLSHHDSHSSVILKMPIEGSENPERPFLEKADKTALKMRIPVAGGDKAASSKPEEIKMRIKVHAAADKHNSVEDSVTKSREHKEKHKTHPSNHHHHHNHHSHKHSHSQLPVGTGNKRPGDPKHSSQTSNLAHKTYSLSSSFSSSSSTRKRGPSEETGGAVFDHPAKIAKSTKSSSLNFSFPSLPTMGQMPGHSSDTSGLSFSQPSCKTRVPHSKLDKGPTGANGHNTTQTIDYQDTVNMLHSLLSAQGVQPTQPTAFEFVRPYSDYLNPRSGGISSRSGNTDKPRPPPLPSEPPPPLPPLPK
# Sequence (P50750 whole entry): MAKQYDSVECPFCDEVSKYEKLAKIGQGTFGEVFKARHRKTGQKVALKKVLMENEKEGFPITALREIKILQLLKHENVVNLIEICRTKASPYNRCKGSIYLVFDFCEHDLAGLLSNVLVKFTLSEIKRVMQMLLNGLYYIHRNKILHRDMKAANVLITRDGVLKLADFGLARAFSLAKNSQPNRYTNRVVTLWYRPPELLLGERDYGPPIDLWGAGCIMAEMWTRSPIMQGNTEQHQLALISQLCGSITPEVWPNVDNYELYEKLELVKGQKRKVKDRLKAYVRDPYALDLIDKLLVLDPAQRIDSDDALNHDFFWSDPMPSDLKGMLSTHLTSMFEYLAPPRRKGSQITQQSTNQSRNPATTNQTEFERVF
# TEST DETAILS: Inhibition of recombinant human CDK9/cyclin T expressed in insect cells using CDK7/9-tide as substrate after 30 mins in presence of [gamma-33P] by scintillation counting method
pIC50: −log10 of the molar value.
MEASURED ATTRIBUTE: pIC50

{"columns": ["SMILES", "MEASURED ON", "NUMBER"],
 "data": [
  ["CC(C)c1cnn2c(NCc3ccc(-c4ccccn4)cc3)nc(N[C@H]3CC[C@H](N)CC3)nc12", "CDK9/cyclin T1 (Homo sapiens)", 7.31]
]}

* * *

# MEASURED ON: UniProt:O35491
# Sequence (O35491 whole entry): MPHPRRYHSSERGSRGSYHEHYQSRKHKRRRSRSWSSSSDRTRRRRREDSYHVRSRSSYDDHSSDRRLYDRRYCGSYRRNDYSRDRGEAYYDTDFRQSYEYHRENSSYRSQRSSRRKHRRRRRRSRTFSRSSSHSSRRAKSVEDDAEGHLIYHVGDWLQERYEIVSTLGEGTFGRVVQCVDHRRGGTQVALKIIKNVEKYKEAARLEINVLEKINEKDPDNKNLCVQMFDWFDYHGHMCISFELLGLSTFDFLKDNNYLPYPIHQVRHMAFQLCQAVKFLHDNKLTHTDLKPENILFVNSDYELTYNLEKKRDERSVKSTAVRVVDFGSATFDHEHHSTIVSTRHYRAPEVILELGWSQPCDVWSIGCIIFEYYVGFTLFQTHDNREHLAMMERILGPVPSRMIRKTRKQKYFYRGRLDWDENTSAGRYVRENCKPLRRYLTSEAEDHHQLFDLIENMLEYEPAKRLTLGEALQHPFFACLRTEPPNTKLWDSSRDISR
# TEST DETAILS: Inhibition of recombinant GST-tagged mouse CLK2 expressed in Escherichia coli using RS peptide as substrate after 30 mins in presence of [gamma-33P] by scintillation counting method
pIC50: −log10 of the molar value.
MEASURED ATTRIBUTE: pIC50

{"columns": ["COMPOUND", "MEASURED ON", "NUMBER"],
 "data": [
  ["CC[C@H](CO)Nc1nc(NCc2ccccc2)c2ncn(C(C)C)c2n1 [SELICICLIB]", "UniProt:O35491", 6.15],
  ["CC(C)c1cnn2c(NCc3ccc(-c4ccccn4)cc3)nc(N[C@H]3CC[C@H](N)CC3)nc12", "UniProt:O35491", 6.89]
]}

* * *

# MEASURED ON: CDK2/Cyclin A2 (Homo sapiens)
# TEST DETAILS: Inhibition of recombinant human CDK2/cyclin A after 30 mins in presence of [gamma-33P] by scintillation counting method

{"columns": ["SMILES", "IC50, nM"],
 "data": [
  ["CC(C)c1cnn2c(NCc3ccc(-c4ccccn4)cc3)nc(N[C@H]3CC[C@H](N)CC3)nc12", 68]
]}

* * *

# MEASURED ON: Dual specificity protein kinase CLK3 (Mus musculus, UniProt O35492)
# Sequence (O35492 whole entry): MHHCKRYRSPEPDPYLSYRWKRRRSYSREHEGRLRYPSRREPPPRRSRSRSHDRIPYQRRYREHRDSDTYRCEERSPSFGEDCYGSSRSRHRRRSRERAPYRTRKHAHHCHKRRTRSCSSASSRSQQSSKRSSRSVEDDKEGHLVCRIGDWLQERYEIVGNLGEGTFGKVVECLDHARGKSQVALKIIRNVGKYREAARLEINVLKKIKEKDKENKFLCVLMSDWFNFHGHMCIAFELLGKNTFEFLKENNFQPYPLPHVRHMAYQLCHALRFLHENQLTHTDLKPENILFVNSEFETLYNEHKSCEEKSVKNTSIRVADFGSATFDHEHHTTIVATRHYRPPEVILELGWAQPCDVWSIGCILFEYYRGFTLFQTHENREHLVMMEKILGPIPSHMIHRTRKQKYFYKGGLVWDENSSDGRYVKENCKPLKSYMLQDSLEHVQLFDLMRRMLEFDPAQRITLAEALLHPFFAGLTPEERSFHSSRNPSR
# TEST DETAILS: Inhibition of recombinant GST-tagged mouse CLK3 expressed in Escherichia coli using RS peptide as substrate after 30 mins in presence of [gamma-33P] by scintillation counting method
pIC50: −log10 of the molar value.

{"columns": ["SMILES", "LIMIT OPERATOR", "pIC50"],
 "data": [
  ["CC(C)c1cnn2c(NCc3ccc(-c4ccccn4)cc3)nc(N[C@H]3CC[C@H](N)CC3)nc12", "=", 5.54],
  ["CC[C@H](CO)Nc1nc(NCc2ccccc2)c2ncn(C(C)C)c2n1", "<", 5.00]
]}

* * *

# MEASURED ON: Dual specificity tyrosine-phosphorylation-regulated kinase 2 (Homo sapiens)
# Sequence (Q92630 whole entry): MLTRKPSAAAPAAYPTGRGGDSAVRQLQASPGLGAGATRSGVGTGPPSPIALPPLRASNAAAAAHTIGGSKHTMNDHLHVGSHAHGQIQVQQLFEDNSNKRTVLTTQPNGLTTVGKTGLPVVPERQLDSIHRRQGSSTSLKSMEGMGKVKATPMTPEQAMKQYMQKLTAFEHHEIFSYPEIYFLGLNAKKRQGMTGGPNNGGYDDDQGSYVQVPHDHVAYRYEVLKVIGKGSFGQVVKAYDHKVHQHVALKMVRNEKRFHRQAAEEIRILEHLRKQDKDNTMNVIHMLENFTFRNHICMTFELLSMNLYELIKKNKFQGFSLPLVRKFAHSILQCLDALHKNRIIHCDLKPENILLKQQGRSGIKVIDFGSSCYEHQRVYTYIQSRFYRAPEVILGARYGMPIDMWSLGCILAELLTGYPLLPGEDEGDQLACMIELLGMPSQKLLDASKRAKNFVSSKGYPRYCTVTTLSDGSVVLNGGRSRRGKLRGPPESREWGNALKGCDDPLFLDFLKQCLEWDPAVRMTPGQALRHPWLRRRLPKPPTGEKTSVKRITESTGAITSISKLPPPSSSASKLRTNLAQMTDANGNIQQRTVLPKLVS
# TEST DETAILS: Inhibition of recombinant GST-tagged human DYRK2 expressed in Escherichia coli using woodtide as substrate after 30 mins in presence of [gamma-33P] by scintillation counting method
# IC50 listing for each entry below

{"columns": ["COMPOUND", "IC50"],
 "data": [
  ["CC(C)c1cnn2c(NCc3ccc(-c4ccccn4)cc3)nc(N[C@H]3CC[C@H](N)CC3)nc12", "120 nM"],
  ["CC[C@H](CO)Nc1nc(NCc2ccccc2)c2ncn(C(C)C)c2n1 [SELICICLIB]", "1700 nM"]
]}
